Molecular target: UniProt:P21728
Experiment: Agonist activity at human dopamine D1 receptor expressed in HEK293 cells assessed as cAMP accumulation after 15 mins relative to apomorphine
Assay type: functional, cell-based
REPORTED_ENDPOINT: Efficacy (%)
Give a bare numeral; the unit % is implied.

Read the entry CN1CCc2ccc(Cc3ccc(O)cc3)c3c2[C@H]1Cc1ccc(O)c(O)c1-3 and write its reported Efficacy. 95

Read the entry CN(C)c1ccc(Cc2ccc3c4c2-c2c(ccc(O)c2O)C[C@H]4N(C)CC3)cc1 and write its reported Efficacy. 106

Read the entry CN1CCc2ccc(CO)c3c2[C@H]1Cc1ccc(O)c(O)c1-3 and write its reported Efficacy. 102

Read the entry Cc1ccc2c3c1-c1c(ccc(O)c1O)C[C@H]3N(C)CC2 and write its reported Efficacy. 109

Read the entry CN1CCc2ccc(Cc3ccccc3)c3c2[C@H]1Cc1ccc(O)c(O)c1-3 and write its reported Efficacy. 97

Read the entry CN1CCc2ccc(Cc3ccc(O)c4ccccc34)c3c2[C@H]1Cc1ccc(O)c(O)c1-3 and write its reported Efficacy. 101

----------
Target: D(1A) dopamine receptor (Homo sapiens, UniProt P21728)
Sequence (P21728 whole entry): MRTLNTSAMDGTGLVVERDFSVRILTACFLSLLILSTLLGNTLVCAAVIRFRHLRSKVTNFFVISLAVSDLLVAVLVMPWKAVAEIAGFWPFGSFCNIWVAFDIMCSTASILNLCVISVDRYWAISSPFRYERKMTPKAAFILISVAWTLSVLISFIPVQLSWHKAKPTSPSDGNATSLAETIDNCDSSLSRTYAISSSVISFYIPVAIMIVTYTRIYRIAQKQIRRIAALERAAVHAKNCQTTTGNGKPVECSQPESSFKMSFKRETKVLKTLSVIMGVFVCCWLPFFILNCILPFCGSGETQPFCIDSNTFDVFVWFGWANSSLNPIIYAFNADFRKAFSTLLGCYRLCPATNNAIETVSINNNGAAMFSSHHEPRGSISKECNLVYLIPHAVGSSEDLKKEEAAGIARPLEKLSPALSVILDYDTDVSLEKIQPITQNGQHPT
Test: Agonist activity at human dopamine D1 receptor expressed in HEK293 cells assessed as cAMP accumulation after 15 mins
REPORTED_ENDPOINT: EC50 (nM)
Give a bare numeral; the unit nM is implied.

- SMILES_DATA: "Cc1ccc2c3c1-c1c(ccc(O)c1O)C[C@H]3N(C)CC2"
  UNITS_TEXT: "nM"
  EC50: 21.9
- SMILES_DATA: "CN1CCc2ccc(Cc3ccc(O)c4ccccc34)c3c2[C@H]1Cc1ccc(O)c(O)c1-3"
  UNITS_TEXT: "nM"
  EC50: 316
- SMILES_DATA: "CN1CCc2ccc(Cc3ccccc3)c3c2[C@H]1Cc1ccc(O)c(O)c1-3"
  UNITS_TEXT: "nM"
  EC50: 78
- SMILES_DATA: "CN1CCc2ccc(CO)c3c2[C@H]1Cc1ccc(O)c(O)c1-3"
  UNITS_TEXT: "nM"
  EC50: 117
- SMILES_DATA: "CN(C)c1ccc(Cc2ccc3c4c2-c2c(ccc(O)c2O)C[C@H]4N(C)CC3)cc1"
  UNITS_TEXT: "nM"
  EC50: 741

Read the entry CN1CCc2ccc(Cc3ccc(O)cc3)c3c2[C@H]1Cc1ccc(O)c(O)c1-3 and write its reported EC50. 10.5

----------
Target: D(2) dopamine receptor (Homo sapiens)
Sequence (P14416 whole entry): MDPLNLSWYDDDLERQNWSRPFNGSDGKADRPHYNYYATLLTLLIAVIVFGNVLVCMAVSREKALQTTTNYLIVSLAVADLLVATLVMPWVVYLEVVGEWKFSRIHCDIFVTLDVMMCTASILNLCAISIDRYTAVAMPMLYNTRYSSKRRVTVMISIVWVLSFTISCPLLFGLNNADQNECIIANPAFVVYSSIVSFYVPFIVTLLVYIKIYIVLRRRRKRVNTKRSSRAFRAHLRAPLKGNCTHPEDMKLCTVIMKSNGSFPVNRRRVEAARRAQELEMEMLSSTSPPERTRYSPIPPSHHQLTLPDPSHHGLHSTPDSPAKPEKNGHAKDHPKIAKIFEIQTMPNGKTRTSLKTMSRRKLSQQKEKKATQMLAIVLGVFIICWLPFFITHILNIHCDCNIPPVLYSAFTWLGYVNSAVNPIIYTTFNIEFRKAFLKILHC
Test: Agonist activity at human dopamine D2L receptor expressed in HEK293 cells assessed as forskolin-stimulated cAMP accumulation after 15 mins relative to apomorphine
Format: functional, cell-based
Entries and their Efficacy

Past entries and their recorded results:
- SMILES_DATA: "Cc1ccc2c3c1-c1c(ccc(O)c1O)C[C@H]3N(C)CC2"
  RESULT: "97%"
- SMILES_DATA: "CN1CCc2ccc(Cc3ccccc3)c3c2[C@H]1Cc1ccc(O)c(O)c1-3"
  RESULT: "98%"
- SMILES_DATA: "CN1CCc2ccc(CO)c3c2[C@H]1Cc1ccc(O)c(O)c1-3"
  RESULT: "95%"
- SMILES_DATA: "CN1CCc2ccc(Cc3ccc(O)c4ccccc34)c3c2[C@H]1Cc1ccc(O)c(O)c1-3"
  RESULT: "100%"
- SMILES_DATA: "CN(C)c1ccc(Cc2ccc3c4c2-c2c(ccc(O)c2O)C[C@H]4N(C)CC3)cc1"
  RESULT: "104%"

For the next question, use this compound.
Read the entry CN1CCc2ccc(Cc3ccc(O)cc3)c3c2[C@H]1Cc1ccc(O)c(O)c1-3 and write its reported Efficacy. 102%
